Test system: E. coli TESEC Alr+ wild-type control
Assay: growth (OD600 after 10 h); higher = more growth (less inhibition)
Details: compound 0.1 mM; raw OD600 reference: median of DMSO wells 0.49, cell-free background 0.052
Counter-ions that a name gives are not always drawn.
EXPERIMENTAL_ENDPOINT: growth
One number for each entry.

Return reported growth values for all items listed beneath this line.
1. Cc1ccc(O)c([C@H](CCN(C(C)C)C(C)C)c2ccccc2)c1 [Tolterodine tartrate]
2. O=C(NCC(O)CO)c1c(I)c(C(=O)NCC(O)CO)c(I)c(N(CCO)C(=O)CO)c1I (stereo not given) [Ioversol]
3. COc1ccc(-c2ccc3cc(C(=O)O)ccc3c2)cc1C12CC3CC(CC(C3)C1)C2 [Adapalene]
4. C[C@@H](O)[C@H]1C(=O)N2C(C(=O)O)=C(SCCNC=N)C[C@H]12 [Imipenem]
5. Cn1c([N+](=O)[O-])cnc1COC(N)=O [Ronidazole]

[0.55, 0.452, 0.483, 0.271, 0.458]

* * *

Hi there, I'd appreciate the recorded growth for every entry that follows.
Test system: E. coli TESEC Mtb DapB
Assay: growth (OD600 after 10 h); higher = more growth (less inhibition)
Conditions: arabinose induction (level): Low; compound 0.1 mM; raw OD600 reference: median of DMSO wells 0.227, cell-free background 0.041
Where a name gives a salt, the structure may show the parent alone.
Numbers only.

CC(=O)OCC(CCn1cnc2cnc(N)nc21)COC(C)=O: 0.199
CC(C)c1ccc2oc3nc(N)c(C(=O)O)cc3c(=O)c2c1: 0.206
c1cnc(N2CCN(Cc3ccc4c(c3)OCO4)CC2)nc1 [Piribedil hydrochloride]: 0.202
Clc1ccc(C(Cn2ccnc2)OCc2ccsc2Cl)c(Cl)c1 (stereo not drawn): 0.0575
NC(Cc1cc(I)c(Oc2cc(I)c(O)c(I)c2)c(I)c1)C(=O)O (stereo not drawn): 0.243
O=C(NCC(O)CO)c1c(I)c(C(=O)NCC(O)CO)c(I)c(N(CCO)C(=O)CO)c1I (stereo not drawn): 0.256
CNC(=O)c1c(I)c(C(=O)NCC(=O)Nc2c(I)c(C(=O)O)c(I)c(C(=O)NCCO)c2I)c(I)c(N(C)C(C)=O)c1I: 0.211

Complete the entry with growth for NS(=O)(=O)c1cc2c(cc1C(F)(F)F)NC(Cc1ccccc1)NS2(=O)=O (stereo not drawn) [Bendroflumethiazide]
0.268

* * *

Test system: E. coli TESEC Mtb Alr
Assay: growth (OD600 after 10 h); higher = more growth (less inhibition)
Details: arabinose 1000000 nM; compound 0.1 mM; raw OD600 reference: median of DMSO wells 0.193, cell-free background 0.041
Structures can show the parent of a compound that is named as a salt.
Hi there, I'd appreciate the recorded growth for every entry that follows.
Give bare numbers.

Examples with their reported growth follow.
N[C@@H](Cc1ccc(O)c(O)c1)C(=O)O: 0.178
Nc1ccc(C(=O)O)c(O)c1: 0.19
CCCN(CCC)S(=O)(=O)c1ccc(C(=O)O)cc1: 0.153
O=C1[C@H](CC[C@H](O)c2ccc(F)cc2)[C@@H](c2ccc(O)cc2)N1c1ccc(F)cc1: 0.0477
Cc1cccc(C)c1OCC(C)N (configuration not stated) [Mexiletine hydrochloride]: 0.171
CCc1cccc2c3c([nH]c12)C(CC)(CC(=O)O)OCC3 (configuration not stated): 0.147

Return reported growth values for all items listed beneath this line.
1. Oc1c(Cl)cc(Cl)c(Cl)c1Cc1c(O)c(Cl)cc(Cl)c1Cl
2. COc1cc2nc(N3CCN(C(=O)C4COc5ccccc5O4)CC3)nc(N)c2cc1OC (configuration not stated) [Doxazosin mesylate]
3. CC(C)[C@H](N)C(=O)OCCOCn1cnc2c(=O)nc(N)[nH]c21 [Valacyclovir hydrochloride]
4. CN1CCc2c(c3ccccc3n2Cc2ccccc2)C1 [Mebhydroline 1,5-naphtalenedisulfonate]
5. CN(Cc1cnc2nc(N)nc(N)c2n1)c1ccc(C(=O)N[C@@H](CCC(=O)O)C(=O)O)cc1 [Methotrexate]
6. O=c1oc2ccccc2c(O)c1Cc1c(O)c2ccccc2oc1=O

[0.0439, 0.0405, 0.195, 0.133, 0.155, 0.0997]

* * *

Hi there, I'd appreciate the recorded growth for every entry that follows.
Test system: E. coli TESEC Alr+ wild-type control
Experiment: growth (OD600 after 10 h); higher = more growth (less inhibition)
Details: compound 0.1 mM; raw OD600 reference: median of DMSO wells 0.241, cell-free background 0.041
Counter-ions that a name gives are not always drawn.
Give bare numbers.

CC[C@H](C)[C@H]1O[C@]2(CC[C@@H]1C)C[C@@H]1C[C@@H](CC=C(C)C(O[C@H]3C[C@H](OC)[C@@H](O[C@H]4C[C@H](OC)[C@@H](O)[C@H](C)O4)[C@H](C)O3)[C@@H](C)C=CC=C3CO[C@@H]4[C@H](O)C(C)=C[C@@H](C(=O)O1)[C@]34O)O2 (some centres not stated): 0.315
C[N+](C)(C)CCOC(N)=O: 0.251
CN[C@@H]1[C@@H](O)[C@@H](O[C@@H]2[C@@H](O)[C@H](O[C@H]3OC(CN)=CC[C@H]3N)[C@@H](N)C[C@H]2N)OC[C@]1(C)O [Sisomicin sulfate]: 0.0439

Return reported growth values for all items listed beneath this line.
1. CN(C)CCOC(C)(c1ccccc1)c1ccccn1 (configuration not stated) [Doxylamine succinate]
2. Nc1ccc(S(=O)(=O)Nc2ccnn2-c2ccccc2)cc1
3. CCOC(=O)C1=C(C)NC(C)=C(C(=O)OCC)C1c1ccccc1/C=C/C(=O)OC(C)(C)C
4. CC(=O)CC(c1ccc([N+](=O)[O-])cc1)c1c(O)c2ccccc2oc1=O (configuration not stated)
5. CCOc1ccc(Cc2nccc3cc(OCC)c(OCC)cc23)cc1OCC [Ethaverine hydrochloride]
6. C#CCN(C)Cc1ccccc1 [Pargyline hydrochloride]

0.236
0.231
0.26
0.244
0.0471
0.25

Return reported growth values for all items listed beneath this line.
1. CC(=O)c1ccc(S(=O)(=O)NC(=O)NC2CCCCC2)cc1 [Acetohexamide]
2. CN(CCOc1ccc(CC2SC(=O)NC2=O)cc1)c1ccccn1 (configuration not stated) [Rosiglitazone Hydrochloride]
3. CN1CCN(c2c(F)cc3c(=O)c(C(=O)O)cn(CCF)c3c2F)CC1
4. O=C(O)c1cc(-c2ccc(F)cc2F)ccc1O
5. CC(C)c1c(C(=O)Nc2ccccc2)c(-c2ccccc2)c(-c2ccc(F)cc2)n1CC[C@@H](O)C[C@@H](O)CC(=O)O
6. CC(O)(P(=O)(O)O)P(=O)(O)O [Etidronic acid, disodium salt]
7. Nc1nc2c(ncn2COCCO)c(=O)[nH]1
8. CCCCN1CCCCC1C(=O)Nc1c(C)cccc1C (configuration not stated) [Bupivacaine hydrochloride]

[0.253, 0.142, 0.0517, 0.128, 0.12, 0.261, 0.255, 0.236]

* * *

Test system: E. coli TESEC Mtb Alr
Experiment: growth (OD600 after 10 h); higher = more growth (less inhibition)
Settings: arabinose 10000000 nM; compound 0.1 mM; raw OD600 reference: median of DMSO wells 0.146, cell-free background 0.041
Counter-ions that a name gives are not always drawn.
EXPERIMENTAL_ENDPOINT: growth
Numbers only.

Examples with their reported growth follow.
C=C1/C(=C\C=C2/CCC[C@]3(C)[C@@H]([C@H](C)CCCC(C)C)CC[C@@H]23)C[C@@H](O)C[C@@H]1O [Alfacalcidol]: 0.121
CCC(=O)O[C@]1(C(=O)CCl)[C@@H](C)C[C@H]2[C@@H]3CCC4=CC(=O)C=C[C@]4(C)[C@@]3(F)[C@@H](O)C[C@@]21C [Clobetasol propionate]: 0.156
CCOC(=O)NNc1nncc2ccccc12 [Todralazine hydrochloride]: 0.16
CCN1CCCC1CNC(=O)c1cc(S(N)(=O)=O)ccc1OC (configuration not stated) [Sulpiride]: 0.147
CCn1cc(C(=O)O)c(=O)c2ccc(C)nc21 [Nalidixic acid sodium salt]: 0.0515
CCCCN(CCCC)CCCOC(=O)c1ccc(N)cc1 [Butacaine]: 0.14

Complete the entry with growth for CN1C(C(=O)Nc2ccccn2)=C(O)c2ccccc2S1(=O)=O [Piroxicam]
0.155

* * *

Tested on: E. coli TESEC Mtb Alr
Experiment: growth (OD600 after 10 h); higher = more growth (less inhibition)
Conditions: arabinose 100 nM; compound 0.1 mM; raw OD600 reference: median of DMSO wells 0.413, cell-free background 0.052
Hi there, I'd appreciate the recorded growth for every entry that follows.
Numbers only.

Examples with their reported growth follow.
CN(C)/N=N/c1[nH]cnc1C(N)=O [Dacarbazine]: 0.405
CC1(C)[C@H](C(=O)O)N2C(=O)C[C@H]2S1(=O)=O [Sulbactam]: 0.409

Shifting focus to the molecule that follows.
Specify the recorded growth for c1coc(CNc2ncnc3nc[nH]c23)c1 [6-Furfurylaminopurine] , system: E. coli TESEC Mtb Alr.
0.405
